experiment: 14C assay with IPTG-induced recombinant E. coli cells: 14CO2 captured from [14C]-carboxyl-labeled dicamba; conditions: induced recombinant E. coli cells, [14C]-carboxyl-labeled dicamba, 14CO2 capture
PROPERTY_NAME: Dicamba Decarboxylase Activity

- 75 (protein, listed as Ectocarpus siliculosus) MAKIDSYTHFACPAFMDHLEAESGHPMVFRGLFSSIPELSDIDLRIRYMDEHGIDVHCLVPLPWLECEPGLHADEGKALEACRIANDEMARVVARFPDRLIGVALIPTTTEQAMIQETTRAVKELGMAGVALFVGPTAKPPDMACFEGLYRTCEELGAVVWMHPCRPQSYADYDSYKGEGSKHQIWNTFGWIYDTSVAMVHIALAGVFRRYPGLKVVTHHHGAMVPFFTARFDTQRRNFQEVEGDDLLEDLRLFYCDTATFGESAANIQQAIDFFGKSQVLFGTDTPMDMGTRGMFTRTTIASVEALGAAPEDKESFYAGNVLDMLGERFAGISGARGAVAARPKGDSTRIAASL: Low
- 62 (protein, Bacillus thuringiensis serovar pulsiensis) MAVGGKNFRDVTDQVWCPKKRIEDMDREGVDIQVLSPIPVTFSYWAKPEEAESMARIQNDFIAETVLAYPDRFVGLGTVPMQDGETAIREMERCITELNLHGIEIGTNVNGKNLDDPSFIEFFRMAEKWQVPIFIHPWETLGRDRMPHHNFMYTVGMPSETALAAATLIWSGIMEKFPRLKVCFAHGGGSFPYILPRLDQGWKVWPHLRLTTHPPSYYAKKFYFDSLNYDPINLKYMIERFGHEKIFMGSDYPFLLREVDPGKVIDETASLSEEQKAAMLGGNAAEFLNIDIKKRGVAYAESTNT: No
- 20 (protein, listed as Legionella pneumophila) MAIVDFETHFITEACIDYLTQRQEVPKLVPDLNGAYTMCFTPDVSLFHTSALMEELLSLNEQRLAIMDQAGVTIQVLSLTTINGIDSCPGDENKSTALAREVNDQLYSAIQRHPERFKGFASISPYDVKEGVKELERAISQLGFVGWLTHSNFGQDNYLDDKTYWPLLEAAEGLNIPIYLHPNVPIMREFGKYGFALGGSALGFEFDTALCLMRMILGGVFDAFPKLKIMLGHLGETMPFLMERLDHLYRIPDLKAYRPSIQRIPSEVLRQNVYITTSGRFFVPALRYVLEVMGEDRVLFASDYPMESLLDATRFIQDSDLSNQTKQKIFSINAKNLNLI: Low
- 72 (protein, Cupriavidus necator) MADCPCCVSPKRRRLLGSVSAIAAGMMAGLPALAAQPSTAAAGTGKPLSIDIHAHYYSESFLGLLGGEGKQFGGHFFRNDDSFTFQTPAGGLGPLPMKFIDVEQRVRDMDNSGVDVQAISLSVPMVYWADRTLNAKLARAWNTAASDVHRKHPTRFVVLATLPMLNANDAIDELEFAAGLPGVRGIYMGTNINNRDLDDPLFSPIFKRIEQLNLPIFLHPQQTVGGARLADFYLSNLLGNPFDTAIAASHLILGGVLDKYPALHFSLPHAGGALPILVGRIDAGWSMRSETKRVAQKPSSYLRRFSYDTISHSGPTLDFLIRNIGADRLVLGSDYCFDMGYEQPVRFLDRLALPDDQKRMVVGGNAARLLNL: Low
